- protocol.notes: MTT cell viability assay, GM16000 lymphocytes
- Type: cell-based
- measurement.setup: human lymphocytes, value (95% CI)
quantity: CC50 at 48 h (µM)
Report the figure in µM without appending any unit label.

Query :: Look up CC50 at 48 h for this molecule: COc1ccc(/C=C\c2cc(OC)c(OC)c(OC)c2)cc1O [CA-4 (1), Combretastatin A-4, reference compound]
Result :: 0.016

* * *

- Tested on: H292
- protocol.notes: MTT cell viability assay, H292
- Type: cell-based, human
- measurement.setup: MTT, 48 h; value (95% CI); read-out: CC50 (µM) (CI) H292
quantity: CC50 (µM)
Return type: number; implicit unit µM.

Query :: Given the compound CCN(/N=C/c1ccccc1)C(=O)c1cc(OC)c(OC)c(OC)c1 , what is its reported CC50?
Result :: 0.3
